Tested on: OVCAR-3
Experiment: NCI tumour cell line growth inhibition, 48 h
Activity calls are given as the source filed them. Rule as the data show it: active = GI50 up to about 1.1 µM and inactive = higher.
One label from this list, please: active, inactive

I'd appreciate the recorded outcome for O=C(O)c1ccccc1/C=N/N=C1NCCN1 from this test.
inactive

I'd appreciate the recorded outcome for O=C(COc1ccccc1)N(C(=O)N1CCN(c2ccccc2)CC1)S(=O)(=O)c1ccccc1 from this test.
inactive

Which outcome did this test record for the compound CCOC(=O)C(C)c1nc2cc(N3CCN(C)CC3)c(F)cc2[nH]c1=O (configuration not stated) ?
inactive

Assay outcome for CCOC(=O)C12CCC(c3c(C)cccc3C)(O1)C(C(=O)OC)=C2C(=O)OC (configuration not stated) : what was it?
active

Outcome? CC(C)c1nc2cc(C(F)(F)F)ccc2[nH]c1=O
inactive

Write down the call the test reported for this compound. Item: CCOc1ccc(/N=C\c2ccc3cc(C)ccc3n2)cc1
inactive

Tell me the recorded outcome of this test for CCCCCCCCCCCCCCC(C)CCC(=O)O (configuration not stated) .
inactive

Hey, what did the test say about COc1cc(OC)c(SSCCCCS(=O)O)c(OC)c1 ?
inactive

How was C=C1C(=O)OC2CC(C)C3C4OC4C(O)C3(C)C(O)C12 (configuration not stated) classified in this test?
inactive

Short answer needed: outcome of this test for CC1=Nc2ccccc2NC(c2ccoc2)C1 (configuration not stated) ?
inactive

For C=CCC(C(=O)Nc1cccc2nc[nH]c12)C(=O)OCC (configuration not stated) , what call appears in the results of this test?
inactive

What outcome does the record of this test show for O=C(c1ccccc1)c1cn(/N=C\c2ccccc2)c(=O)nc1-c1ccccc1 ?
inactive

Identify the outcome logged in this assay for the compound shown: O=C1c2cccc3cc4ccccc4c(c23)C(=O)N1CCNCCN1C(=O)c2cccc3cc4ccccc4c(c23)C1=O
active

Called result for COC(=O)c1cc2ccc(OC(C)=O)c(OC(C)=O)c2cn1
inactive

Would you mind telling me which call this test gave O=P(CN1CCOCC1)(c1ccccc1)c1ccccc1 ?
inactive

Entry O=C(OC1CCC(=C2SCCCS2)[C@H]1C1SCCCS1)c1ccccc1 (some centres not stated) : call = ?
inactive

Would you mind telling me which call this test gave COC(=O)c1c(O)c(C#N)c2[nH]c3ccccc3n2c1=O ?
inactive

# lookup: test call for O=C1OC(=O)C2C1C(c1ccccc1[N+](=O)[O-])C=C(c1ccco1)N2c1ccncc1 (configuration not stated)
inactive

State the result this test recorded for O=C(c1ccccc1)N1CCN2CCN=C(c3ccccc3)C21c1ccccc1 (configuration not stated) .
inactive

Per the records of this test, what outcome belongs to CC(=O)OC[C@@H](OC(C)=O)[C@@H](OC(C)=O)[C@H]1OC[C@@H]2C[C@H]([C@H]1OC(C)=O)N(Cc1ccccc1)O2 ?
inactive

Outcome? N#C/C(=C\c1ccc2ccccc2c1)C(=O)c1ccccc1
inactive

Any idea what this test logged for COC(=O)CNC(=O)CCSc1nnc(COc2ccc(Cl)cc2)n1-c1ccccc1 ?
inactive
